# System: NCI-H460
# method_description: NCI tumour cell line growth inhibition, 48 h
Calls of active or inactive are those of the source. No stated cut-off is given here; in the data, active = GI50 up to about 1.1 µM and inactive = higher.
A correct response names exactly one class from 1 for active, 0 for inactive

>  <compound>
CCCC(=O)c1c(NOC2OC(COC(C)=O)C(OC(C)=O)C(OC(C)=O)C2OC(C)=O)nc(OC)n(C)c1=O (stereo not given)

>  <target_or_system>
NCI-H460

>  <class>
0

$$$$
>  <compound>
CC(C)(C)c1ccc2c(c1)CNCCNCc1cc(C(C)(C)C)ccc1OCC1(CO2)COc2ccc(C(C)(C)C)cc2CNCCNCc2cc(C(C)(C)C)ccc2OC1

>  <target_or_system>
NCI-H460

>  <class>
1

$$$$
>  <compound>
CC1=NC(C(C)C)C(=O)O1 (stereo not given)

>  <target_or_system>
NCI-H460

>  <class>
0

$$$$
>  <compound>
COC(=O)[C@]1(c2cc3ccccc3[nH]2)CC2CN(C(=O)OCc3ccccc3)C1C=C2OC (stereo not given in full)

>  <target_or_system>
NCI-H460

>  <class>
0

$$$$
>  <compound>
c1cc2nnsc2s1

>  <target_or_system>
NCI-H460

>  <class>
0

$$$$

What call does the record list for O=C(O)CCCc1ccc(N(CCCl)CCCl)cc1 [CHLORAMBUCIL] ? 0

Can you look up the reported call for Cc1cc(O)c2c(c1O)C(=O)c1cccc(O)c1C2=O [ISLANDICIN] for me? 0

Please indicate how the test categorized "CC1=C/C(=C2/N=C(N(C)C)SS2)C(C)=N1.[O-][Cl+3]([O-])([O-])O" . 0

Look up the recorded call for "COc1ccc2[nH]c3c(c2c1)COc1ccccc1C3=O" in this test. 0

State the result this test recorded for O=C1c2ccccc2CCC1C(O)(C(F)(F)F)C(F)(F)F (stereo not given) . 0

---

# System: DLD-1
# method_description: NCI tumour cell line growth inhibition, 48 h
Active and inactive are the calls of the source. Rule as the data show it: active = GI50 up to about 1.1 µM and inactive = higher.
measured_endpoint: GI50

>  <molecule>
Cc1cnc(SCCN2CCN(C)CC2)nc1-c1cc2ccccc2s1

>  <target_or_system>
DLD-1

>  <GI50>
12.6 µM (inactive)

$$$$
>  <molecule>
CC1=C(C(=O)CC(=O)C(=O)Nc2cc(C)ccc2C)Sc2ccccc2N1

>  <target_or_system>
DLD-1

>  <GI50>
92.3 µM (inactive)

$$$$

In plain terms, "CC(=O)CC(=O)Nc1ccccc1[N+](=O)[O-]" has a documented GI50 of > 100 µM (inactive)

For record "N#Cc1cc([N+](=O)[O-])ccc1NC(=O)C(=O)Nc1n[nH]c(N)n1" the listed GI50 is > 100 µM (inactive)

According to the records, this molecule "COc1cc(Nc2nc3cc(C(F)(F)F)ccc3nc2-c2ccccc2)cc(OC)c1OC" displays GI50 of > 100 µM (inactive)

Looking up "O=c1/c(=C/c2c(O)ccc3ccccc23)sc2nc3ccccc3n12" , I found its GI50 recorded as > 100 µM (inactive)

response.value for COC1C=C(Nc2cccc(Cl)c2)C(=O)C1 (stereo unspecified) (field: GI50) = 51.4 µM (inactive)

Lookup result for NC(=O)/N=C1\NC(Cc2ccccc2)C(=O)N1Cc1ccccc1 (stereo unspecified) ; measured GI50: > 100 µM (inactive)

Form: molecule = COc1ccc(/C(=C/n2ccnc2)C(O)c2ccc(OC)c(OC)c2)cc1OC (stereo unspecified) ; GI50 = > 100 µM (inactive)

Query "Cc1ccc(N(O)C(C)(C)C)cc1" yields GI50 of > 100 µM (inactive)

What the record says about "CCOc1ccc([Se][Se]c2ccc(OCC)cc2)cc1" : GI50 is > 100 µM (inactive)

---

# System: HOP-62
# method_description: NCI tumour cell line growth inhibition, 48 h
Calls of active or inactive are those of the source. No stated cut-off is given here; in the data, active = GI50 up to about 1.1 µM and inactive = higher. Non-standard residues stand in square brackets, D forms with d. Residues, ends and D or L forms follow the SMILES beside them. *: point of attachment. Phe(4-NO2) = N[CH](Cc1ccc([N+](=O)[O-])cc1)C(=O)O; Boc = CC(C)(C)OC(=O)*
Your response should consist of one outcome taken from True = active, False = inactive

>  <compound>
COc1ccc(OC)c2c1C=CC(Br)=CC2

>  <class>
True

$$$$

I would be grateful if you could indicate the recorded call for C#CCNC(Cc1c[nH]cn1)C(=O)O (stereo not drawn) . False

Entry "OB(O)c1ccccc1C#Cc1ccccc1B(O)O" : call = ? False

Field: outcome | Entry: Nc1ncnc2c1nc(-c1ccccc1)n2C1OC(CO)C(O)C1O (stereo not drawn) False

For COC(=O)CCC(NC(=O)OC(C)(C)C)C(=O)NC(Cc1ccc([N+](=O)[O-])cc1)C(=O)NC(CCC(=O)OC)C(=O)OC (stereo not drawn) (Boc-Glu(OMe)-[Phe(4-NO2)]-Glu(OMe)-OMe; configuration not given here) , which call appears in the assay record? False

Recorded test outcome, item "CCN(CC)C(=S)N/N=C/c1cc([N+](=O)[O-])ccc1O" False

What is the recorded call for this compound in the test? "O=C1NC(=S)NC(=O)C1C(c1ccc(Cl)cc1)C1C(=O)NC(=S)NC1=O.c1ccncc1" False

Recorded test outcome, item "Cc1nc2sc(CCl)nn2c(=O)c1Cl" False

Outcome? "Cc1c2ncccc2c(C)c2c1[nH]c1ccccc12" False

State the result this test recorded for "C1=CC=C2NCCCCCC/N=C3\C=CC=CC=C3NCCc3cccc(c3)CC/N=C/2C=C1" . False

Name the outcome recorded for COc1ccc(CC2c3c(cc(OC)c(OC)c3OC)CCN2C)cc1OC (stereo not drawn) in the assay. False

// return assay outcome for "C/C(CC(O)(C(F)(F)F)C(F)(F)F)=N\N" False

Any idea what this test logged for "CNC(=O)CN(CC(N)=O)C(=O)NC" ? False

Write down the call the test reported for this compound. Item: "CCCCCCCCCCCCCCCCOP(=O)(O)Oc1ccc(/C=C\c2ccc(OP(=O)(O)OCCCCCCCCCCCCCCCC)cc2)cc1" False

---

Let's look at some molecules and their measured GI50.
# System: MCF7
# method_description: NCI tumour cell line growth inhibition, 48 h
Activity calls are given as the source filed them. Cut-off read from the data, not from the text of the source: active = GI50 up to about 1.1 µM and inactive = higher.

Worked examples, 4 molecules total:
>  <molecule>
N#Cc1nc(Cc2cccs2)oc1N

>  <GI50>
> 100 µM (inactive)

$$$$
>  <molecule>
COc1ccc(-c2nnc3nc4ccccc4n3c2O)cc1

>  <GI50>
> 100 µM (inactive)

$$$$
>  <molecule>
C#CCNC(Cc1c[nH]cn1)C(=O)O (stereo unspecified)

>  <GI50>
> 100 µM (inactive)

$$$$
>  <molecule>
COc1ccc([S+]([O-])Cc2cc(OC)c(OC)c(OC)c2)cc1 (stereo unspecified)

>  <GI50>
39.5 µM (inactive)

$$$$

Sample O=C(O)/C=C(/C(=O)O)C12CCN3CC4=CCOC5CC(=O)NC1C5C4CC32 (stereo unspecified) ; GI50 observed: > 100 µM (inactive)

The reported value for "Nc1c(C(=O)Nc2ccc([As](=O)(O)O)cc2)cnc2nnnn12" in terms of GI50 is > 100 µM (inactive)

---

# Tested on: UO-31
# method_description: NCI tumour cell line growth inhibition, 48 h
Activity calls are given as the source filed them. Cut-off read from the data, not from the text of the source: active = GI50 up to about 1.1 µM and inactive = higher.
Answer with one of the outcomes given here: active, inactive

The following compounds have reported results that may help.
>  <compound>
O=C1CC(Nc2ccccc2)c2c(Cl)sc(Cl)c21 (stereo not given)

>  <class>
active

$$$$
>  <compound>
N/C(=N\c1ccc(Cl)cc1)NS(=O)(=O)c1c(C(F)(F)F)cccc1C(F)(F)F

>  <class>
inactive

$$$$
>  <compound>
O=C(CSc1nc2ccc(I)cc2c(=O)n1Cc1ccccc1)NNC(=O)c1ccccc1

>  <class>
inactive

$$$$
>  <compound>
Cc1cc(NS(=O)(=O)c2ccc(Nc3c4ccccc4nc4c(C(=O)N5CCN(CCO)CC5)cccc34)cc2)no1

>  <class>
inactive

$$$$
>  <compound>
COC(=O)c1ccc2c(c1)S/C(=C/c1ccc3ccc4cccc5ccc1c3c45)S2

>  <class>
inactive

$$$$
>  <compound>
O=[PH](O)c1ccsc1

>  <class>
inactive

$$$$
>  <compound>
CSc1nc(=O)c(C#N)c(-c2ccccc2)n1C1OC(COC(C)=O)C(OC(C)=O)C(OC(C)=O)C1OC(C)=O (stereo not given)

>  <class>
inactive

$$$$
>  <compound>
CCOC(=O)C1Cc2[nH]c3ccccc3c2C(C)C1C (stereo not given)

>  <class>
inactive

$$$$

What call does the record list for "Nc1nn2c(nc(N)c3c(N)n[nH]c32)c1/N=N\c1ccc(Br)cc1" ? inactive

Identify the outcome logged in this assay for the compound shown: "CCN1/C(=C/c2ccc3ccccc3[n+]2CC)C=Cc2ccccc21" inactive

---

# System: MDA-MB-435
# method_description: NCI tumour cell line growth inhibition, 48 h
Activity calls are given as the source filed them. No stated cut-off is given here; in the data, active = GI50 up to about 1.1 µM and inactive = higher.
measured_endpoint: GI50

Field: example entries. Status: answers known.
>  <compound>
CC(=O)c1c2c(cc3c1CC1(Cc4cc5c(cc4C1)CCCC5)C3)CCCC2

>  <GI50>
16.9 µM (inactive)

$$$$
>  <compound>
O=C(Nc1ccn(C2CC(I)C(COC(c3ccccc3)(c3ccccc3)c3ccccc3)O2)c(=O)n1)c1ccccc1 (stereo unspecified)

>  <GI50>
7.36 µM (inactive)

$$$$
>  <compound>
OC1NC2Nc3ccccc3NC2NC1O (stereo unspecified)

>  <GI50>
> 100 µM (inactive)

$$$$
>  <compound>
COC1(OC)c2no[n+]([O-])c2C(OC)(OC)c2c1no[n+]2[O-]

>  <GI50>
17.3 µM (inactive)

$$$$
>  <compound>
C#CCNC(Cc1c[nH]cn1)C(=O)O (stereo unspecified)

>  <GI50>
> 100 µM (inactive)

$$$$

Then there is this compound:
Looking up "Oc1ccc(C(c2ccc(O)cc2)c2ccc(O)cc2)cc1" , I see its GI50 listed as 19.7 µM (inactive)
